All values here come from patent US20200123233A1.

- experimental_target: Rabies virus glycoprotein G, Challenge Virus Standard (CVS)-11 strain (Rabies virus, strain CVS-11 (genotype 1 Lyssavirus)) (UniProt O92284)
- Sequence (O92284 20-524 limits assumed): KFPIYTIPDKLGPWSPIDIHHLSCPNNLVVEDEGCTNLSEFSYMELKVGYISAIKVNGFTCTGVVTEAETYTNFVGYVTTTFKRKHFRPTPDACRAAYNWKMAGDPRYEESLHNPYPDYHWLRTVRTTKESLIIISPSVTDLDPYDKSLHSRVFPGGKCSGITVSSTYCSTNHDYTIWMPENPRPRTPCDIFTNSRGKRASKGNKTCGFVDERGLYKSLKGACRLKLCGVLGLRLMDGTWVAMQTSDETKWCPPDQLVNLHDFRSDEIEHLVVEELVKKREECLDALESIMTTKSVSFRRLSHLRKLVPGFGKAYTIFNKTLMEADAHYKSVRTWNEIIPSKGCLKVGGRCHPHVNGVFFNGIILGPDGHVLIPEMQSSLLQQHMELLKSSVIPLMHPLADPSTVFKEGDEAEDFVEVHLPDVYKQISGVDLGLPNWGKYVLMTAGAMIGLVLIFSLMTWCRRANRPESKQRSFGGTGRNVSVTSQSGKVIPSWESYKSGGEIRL
- test_protocol: cell-based or functional assay
attribute_measured: CVS-11 neutralizing antibody titer (RFFIT), IU/mg (IU/mg)
Output spec: scalar in IU/mg, unitless text.

Reference set, count: 5
LG213D7 (VHH) VHH: EVQLVESGGGLVQAGGSLRLSCTVSGDTFDNSAAGWYRATSETQRELVARIRSSGSTNYADSVKGRFTVSRDNAKNTVYLQMNSLKPEDTAVYYCNVVSYGEYFWGKGTLVTVSS = 7.61
LG214F8 (VHH) VHH: EVQLVESGGDLVQAGGSLRLSCVASGSTYSINAMGWYRQAPGKLRELVAAFRTGGSTDYADSVKGRFTISRDTAKNTVYLQMNSLKPEDTAVYYCNAEVIYYPYDYWGQGTQVTVSS = 7.19
LG212A2 (VHH) VHH: EVQLVESGGGLVQAGGSLRLSCAASGRTFDTYFVGWFRQAPGKERDFVAAISWSGDRTFYADSVKGRFTISRDNAKNTEYLQMNSLKPEDTAVYYCAAREYGRLYSDSEAYDYWGQGTQVTVSS = 1.72
LG214H10 (VHH) VHH: EVQLVESGGGSVQAGGSLRLSCAASGGTFNPYVMAWFRQAPGNEREFVARIRWSGGDAYYDDSVKGRFAITRDAAKNTVHLQMNSLKPEDTAVYYCAAATYGYGSYTYGGSYDLWGQGTQVTVSS = 8.17
LG212B2 (VHH) VHH: EMQLVESGGGLVQAGDSLRLSCAASGDTFSWYVMAWFRQAPGKEREFVTWINRSGASTYYADSVKGRFTIFRDNDKNTVYLQMNSLKPEDTAVYYCAAGGFYGLRTTEERYDTWGQGTQVTVSS = 3.66

For the binder LG213B7 (VHH) VHH: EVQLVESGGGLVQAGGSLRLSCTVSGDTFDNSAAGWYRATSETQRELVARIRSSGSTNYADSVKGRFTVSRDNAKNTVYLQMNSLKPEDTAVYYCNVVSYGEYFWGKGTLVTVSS , what CVS-11 neutralizing antibody titer (RFFIT), IU/mg is on record?
7.38
